Source of measurements: PubChem BioAssay (NCI)

- System: NCI/ADR-RES ovarian
- Experimental Protocol: NCI tumour cell line growth inhibition, 48 h; in the data active = GI50 below about 0.43 µM; inactive = the rest
Output constraint: value belongs to active, inactive

Molecule	Target Or System	Assigned Class
O=c1cc(-c2ccccc2F)[nH]c2ccc(N3CCCC3)cc12	NCI/ADR-RES ovarian	active
O=C(Nc1cccc(-n2cc(-c3ccncc3)c(-c3cc(O)cc(Cl)c3)n2)c1)Nc1ccc(Cl)c(C(F)(F)F)c1	NCI/ADR-RES ovarian	inactive

Exercise: I would be grateful if you could indicate the recorded call for COc1ccc(/C=C/C(=O)c2ccc(O)c(CN3CCN(c4cc5c(cc4F)c(=O)c(C(=O)O)cn5C4CC4)CC3)c2)cc1 .
Solution: inactive

Exercise: Tell me the recorded outcome of this test for COC(=O)[C@@]12OC[C@]34[C@H]([C@@H](O)[C@@H]1O)[C@@]1(C)[C@H](O)C(=O)C=C(C)[C@@H]1C[C@H]3OC(=O)C(OC(C)=O)[C@@H]24 (some centres undefined) .
Solution: inactive

* * *

For each entry below, report its TGI value.
- Test system: OVCAR-5 ovarian
- Experimental Protocol: NCI tumour cell line growth inhibition, 48 h
One number for each entry, in µM.

> print(dat)
                               entry.smiles  reported
1  O=C(NCCNCCCNC(=O)c1cc(-c2ccccc2)nc2ccccc12)c1cccc(O)c1O      13.9

Exercise: Item O=C(C[n+]1ccc2ccccc2c1)c1ccc2ccc3ccccc3c2c1 : provide TGI
Solution: 19.8

* * *

- System: HT29 colon
- Experimental Protocol: NCI tumour cell line growth inhibition, 48 h
Readout: TGI

Compound	Readout	Reported
CCCCCCCCCCCCCCCCOCC(CC(F)(F)P(=O)(OCC)OCC)OC(C)=O (configuration not stated)	TGI	35.5 µM
COc1c(O)cc2oc(-c3ccc(O)cc3)cc(=O)c2c1O	TGI	> 100 µM
COc1ccc(CNC(=O)NCn2cc(-c3ccccc3)nn2)cc1	TGI	> 100 µM
CN1CCN(c2ncc3c(n2)sc2c(=O)n(-c4ccccc4)cnc23)CC1	TGI	> 100 µM
CC1=NN(c2cccc(Cl)c2)C2(SCC(=O)N2c2nc3ccccc3s2)/C1=C\c1cccs1 (configuration not stated)	TGI	46.6 µM

Please look at the items below and tell me TGI for each one, in order.
1. COc1ccc(-c2nc(-c3ccccc3)c(-c3ccccc3)[nH]2)cc1OC1CCCC1
2. COC(=O)CC1NC(=O)[C@@H]1C(C)O (some centres not stated)

Solution:
["> 100 µM", "> 100 µM"]

Provide the reported TGI of each entry below, same order.
1. Cc1ccc(NC2=CC(=O)C(NO)c3ccccc32)cc1 (configuration not stated)
2. CC1OC(n2c3ccccc3c3c4c(c5c6ccccc6[nH]c5c32)C(=O)N(CCN[C@@H]2CCC[C@H]2N)C4=O)CC(O)C1O (some centres not stated)
3. COc1cc(CO)c(CC(=O)NCCCc2ccccc2)cc1OC
4. O=C(Nc1cccc(-n2cc(-c3ccncc3)c(-c3ccc(Cl)c(O)c3)n2)c1)c1ccc(N2CCOCC2)c(C(F)(F)F)c1

Solution:
1. 17.1 µM
2. 5.46 µM
3. > 100 µM
4. > 50 µM

Quick request: TGI for each listed item, please.
1. C=CCOC(=O)NC1C(OC(C)[C@@H](NC(=O)OCc2ccccc2)C(=O)OC(C)(C)C)OC(COC(C)=O)C(OC(C)=O)C1OC(C)=O (some centres not stated)
2. CC1CC[C@@]2(OC1)OC1C[C@H]3[C@@H]4CC=C5CC(OC6OC(CO)C(OC7OC(CO)C(O)C(OC8OCC(O)C(O)C8O)C7OC7OC(CO)C(O)C(O)C7O)C(O)C6O)CCC5(C)[C@H]4CCC3(C)C1[C@@H]2C (some centres not stated)
3. COc1ccc2c(c1)[n+]([O-])c(-c1ccc(OC)c(OC)c1)c(N)[n+]2[O-]
4. Clc1cc2c(cc1Cl)CC(NCCN1CCCC1)CC2 (configuration not stated)
5. CN1CNc2nc(N)n(C)c(=O)c2C1

Solution:
["> 100 µM", "9.4 µM", "> 100 µM", "18.1 µM", "> 10 µM"]

* * *

- Test system: COLO 205 colon
- Experimental Protocol: NCI tumour cell line growth inhibition, 48 h
Please use true (1) whenever TGI is not below 30 µM, and false (0) whenever it is.

Solved cases (3 shown):
Compound	Assigned Class
CCCCCCCCCCCCCCCCOCC(CC(F)(F)P(=O)(OCC)OCC)OC(C)=O (stereo unspecified)	true (1)
COc1ccc2c(c1)[n+]([O-])c(-c1ccc(OC)c(OC)c1)c(N)[n+]2[O-]	true (1)
N#Cc1c(-c2ccc([N+](=O)[O-])cc2)c(C#N)c(=O)n(NS(=O)(=O)c2ccccc2)c1-c1ccccc1	true (1)

Exercise: State whether the measured TGI reaches 30 µM, counting equality as reaching it, for COc1ccc(CC(=O)N2CCC3(C)CC(=O)CC=C23)cc1OC (stereo unspecified)
Solution: true (1)

Exercise: Can COc1ccc(-n2cnc3c2NC(C)(C)N=C3C(N)=O)c(OC)c1 be said to have TGI at or above 30 µM?
Solution: true (1)

Exercise: Given the entry C(=N\NC1=NCCN1)/c1ccc(-c2cn3cc(/C=N/NC4=NCCN4)ccc3n2)cc1 , answer whether its TGI meets or surpasses 30 µM.
Solution: true (1)

Exercise: API: above_or_equal(metric=TGI, cutoff=30 µM) for item CN(C)C(=S)/N=c1\ssc(=S)n1Cc1cccnc1
Solution: true (1)

Exercise: Check if TGI >= 30 µM (inclusive). Item: CC(C)CCCC(C)[C@H]1CCC2[C@@H]3CCC4Nc5nocc5C[C@]4(C)C3CC[C@@]21C (stereo partly specified)
Solution: false (0)

Exercise: Test whether the compound O=C(/C=C/c1ccc(O)c(-c2cc(C(=O)/C=C/c3ccc(O)cc3)c(O)cc2O)c1)c1ccc(O)cc1O records TGI of 30 µM or higher.
Solution: false (0)

Exercise: Say whether CC(=O)Oc1ccc(-c2cc3ccccc3oc2=O)cc1 shows TGI of 30 µM or more.
Solution: true (1)

Exercise: Check the entry COc1c(O)cc2oc(-c3ccc(O)cc3)cc(=O)c2c1O : does TGI equal or exceed 30 µM?
Solution: true (1)

Exercise: Please tell me: is the compound Nc1nc(N)c2nc(CNc3ccc(C(=O)NC(CC(=O)O)C(=O)O)cc3)cnc2n1 (stereo unspecified) at or over 30 µM in terms of TGI?
Solution: true (1)

Exercise: Given Cc1c(N2C(=O)CS(=O)(=O)C2c2cccc(Oc3ccccc3)c2)c(=O)n(-c2ccccc2)n1C (stereo unspecified) , state whether its TGI is at least 30 µM.
Solution: true (1)

Exercise: Could you tell me if the measured TGI of CCSc1n/c(=C\c2ccco2)c2nncn12 reaches 30 µM or more?
Solution: true (1)

Exercise: Evaluate Cc1cc2c(C)nn(Cc3ccccc3)c2c(C(N)=O)c1C : TGI at minimum 30 µM?
Solution: true (1)

Exercise: Textbook exercise: given the entry COC(=O)[C@@]12OC[C@]34[C@H]([C@@H](O)[C@@H]1O)[C@@]1(C)[C@H](O)C(=O)C=C(C)[C@@H]1C[C@H]3OC(=O)C(OC(C)=O)[C@@H]24 (stereo partly specified) , state whether its TGI is greater than or equal to 30 µM.
Solution: false (0)

Exercise: Could you please find out whether CCCN(CCCc1ccccc1)CCc1ccc2[nH]c(=S)[nH]c2c1 has TGI that meets 30 µM or exceeds it?
Solution: true (1)

* * *

- Test system: DU-145 prostate
- Experimental Protocol: NCI tumour cell line growth inhibition, 48 h
Readout: TGI

Here is how some molecules turned out for TGI.
Molecule	Target Or System	TGI
O=C(Nc1cccc(-n2cc(-c3ccncc3)c(-c3cc(O)cc(Cl)c3)n2)c1)Nc1ccc(Cl)c(C(F)(F)F)c1	DU-145 prostate	11.7 µM
CC(=O)C(=Cc1ccc(C=C(C(C)=O)C(C)=O)cc1)C(C)=O	DU-145 prostate	11.9 µM
CCn1c(SCC(=O)NNC(=S)Nc2ccc([N+](=O)[O-])cc2)nc2ccccc2c1=O	DU-145 prostate	> 100 µM
NC(=O)c1c(NC(=O)c2ccccn2)sc2c1CCC(=O)C2	DU-145 prostate	> 100 µM
COC(=O)c1ccccc1OCc1cc(=O)oc2ccc(C)cc12	DU-145 prostate	> 100 µM

Count: 3. Required value per item: TGI.
1. C=CCC1(O)c2ccccc2C(=O)c2c(NCCN(CC(=O)OCC)CC(=O)OCC)cccc21 (stereo not drawn)
2. O=C(O)C1C2CCC(O2)C1C(=O)Nc1cccc2cccnc12 (stereo not drawn)
3. CCC(C)[C@H]1O[C@]2(C=C[C@@H]1C)C[C@@H]1C[C@@H](C/C=C(\C)[C@@H](OC3C[C@H](OC)C(O[C@H]4C[C@H](OC)[C@@H](O)[C@H](C)O4)[C@H](C)O3)[C@@H](C)/C=C/C=C3\CO[C@@H]4[C@H](O)C(C)=C[C@@H](C(=O)O1)[C@]34O)O2 (stereo partly drawn)

Solution:
["> 100 µM", "> 100 µM", "1.62 µM"]
